B1: ANKRD9 (parent)
chain: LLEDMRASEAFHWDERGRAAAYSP

# Variants of: B1
# protocol-notes: protein stability index of a GFP-peptide fusion (GPS, HEK-293T) (PSI 1-6); higher = more stable;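 further: lentivirally expressed fusions sorted by FACS into six bins by GFP to DsRed ratio, PSI derived from sequencing read proportions per bin multiplied by bin number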
# condition-parameters: c terminus: a fixed tail appended
Tag: Yes if measured protein stability index is not below 3, No if it is.

1. H12G; No
2. E15A; No
3. E9Q; Yes
4. A10W; No
5. L2W; No
6. A10K; No
7. H12L; No
8. R16Q; No
9. M5S; Yes
